# System: 855422-203-R-J1-PDC complex spheroid growth
# procedure.text: Anticancer human tumor 855422-203-R-J1-PDC patient-derived bladder carcinoma cell line growth inhibition [AhR]
# experimental.conditions: curve of first compound; second compound 10 µM
pIC50: −log10 of the molar value.
Below is a list of entries, each paired with its recorded pIC50 value.
experimental.readout: pIC50

molecule="Nc1ncn(C2CC(O)C(CO)S2)c(=O)n1 (stereo unspecified) + Cc1ccccc1N=Nc1ccc(NC(=O)c2ccnn2C)c(C)c1" value_measured="< 6.52"
molecule="Cn1ncnc1C1c2n[nH]c(=O)c3cc(F)cc(c23)NC1c1ccc(F)cc1 (stereo unspecified) + Cc1ccccc1N=Nc1ccc(NC(=O)c2ccnn2C)c(C)c1" value_measured="< 7.00"
molecule="O=C(C=Cn1cnc(-c2cc(C(F)(F)F)cc(C(F)(F)F)c2)n1)NNc1cnccn1 + Cc1cncc(-c2nc(NCCc3c[nH]c4ccccc34)c3ncn(C(C)C)c3n2)c1" value_measured="> 8.02"
molecule="Cn1ncnc1C1c2n[nH]c(=O)c3cc(F)cc(c23)NC1c1ccc(F)cc1 (stereo unspecified) + Cc1cncc(-c2nc(NCCc3c[nH]c4ccccc34)c3ncn(C(C)C)c3n2)c1" value_measured="> 9.50"
molecule="COc1cc(C2c3cc4c(cc3C(OC3OC5COC(C)OC5C(O)C3O)C3COC(=O)C23)OCO4)cc(OC)c1O (stereo unspecified) + CC(CO)NC(=O)c1cc(-c2ccc(Cl)cc2)nn(-c2cnn(C)c2)c1=O" value_measured=6.60
molecule="O=C(c1cc(Cc2n[nH]c(=O)c3ccccc23)ccc1F)N1CCN(C(=O)C2CC2)CC1 + Cc1cncc(-c2nc(NCCc3c[nH]c4ccccc34)c3ncn(C(C)C)c3n2)c1" value_measured="> 7.50"

---

# Tested on: 855422-203-R-J1-PDC complex spheroid growth
# procedure.text: Anticancer human tumor 855422-203-R-J1-PDC cell line growth inhibition [AhR];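 also: spheroids exposed to agents for seven days before readout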;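 as to viability, T/C: percent of DMSO vehicle control luminescence viability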
# experimental.conditions: second compound 0.1 µM; first compound 0.000316 µM; stronger effect = lower value
Below is a list of entries, each paired with its recorded viability, T/C value.
experimental.readout: viability, T/C (%)

compound="CC[C@@]1(O)C(=O)OCc2c1cc1n(c2=O)Cc2cc3c(CN(C)C)c(O)ccc3nc2-1 + Cc1cncc(-c2nc(NCCc3c[nH]c4ccccc34)c3ncn(C(C)C)c3n2)c1" experimental_readout="viability, T/C" unit_symbol=% value_measured=95.4
compound="Cn1ncnc1C1c2n[nH]c(=O)c3cc(F)cc(c23)NC1c1ccc(F)cc1 (stereo unspecified) + Cc1ccccc1N=Nc1ccc(NC(=O)c2ccnn2C)c(C)c1" experimental_readout="viability, T/C" unit_symbol=% value_measured=102
compound="Cn1ncnc1C1c2n[nH]c(=O)c3cc(F)cc(c23)NC1c1ccc(F)cc1 (stereo unspecified) + CC(CO)NC(=O)c1cc(-c2ccc(Cl)cc2)nn(-c2cnn(C)c2)c1=O" experimental_readout="viability, T/C" unit_symbol=% value_measured=93.4
compound="CC[C@@]1(O)C(=O)OCc2c1cc1n(c2=O)Cc2cc3c(CN(C)C)c(O)ccc3nc2-1 + CC(CO)NC(=O)c1cc(-c2ccc(Cl)cc2)nn(-c2cnn(C)c2)c1=O" experimental_readout="viability, T/C" unit_symbol=% value_measured=96.7
compound="CC[C@@]1(O)C(=O)OCc2c1cc1n(c2=O)Cc2cc3c(CN(C)C)c(O)ccc3nc2-1 + Cc1ccccc1N=Nc1ccc(NC(=O)c2ccnn2C)c(C)c1" experimental_readout="viability, T/C" unit_symbol=% value_measured=104
compound="Cn1ncnc1C1c2n[nH]c(=O)c3cc(F)cc(c23)NC1c1ccc(F)cc1 (stereo unspecified) + Cc1cncc(-c2nc(NCCc3c[nH]c4ccccc34)c3ncn(C(C)C)c3n2)c1" experimental_readout="viability, T/C" unit_symbol=% value_measured=84.1
